Parameter pIC50, tested on human cyclin E-CDK2 (Homo sapiens, UniProt P24941), listed per item.
pIC50: −log10 of the molar value.
PROPERTY_MEASURED: pIC50

INSERT INTO measurements (compound, reported_value) VALUES
  ('Nc1nc(Nc2ccc(N3CCNCC3)cc2)sc1C(=O)c1cccc(F)c1 [Example 54]', 6.70),
  ('CN1CCN(c2ccc(Nc3nc(N)c(C(=O)c4ccc(N5CCCC5)c(N)c4)s3)cc2)CC1 [Example 65]', 5.13),
  ('CN1CCN(c2ccc(Nc3nc(N)c(C(=O)c4ccc5c(c4)OCCO5)s3)cc2)CC1 [Example 24]', 5.37),
  ('CCN(CC)c1ccc(C(=O)c2sc(Nc3ccc(N4CCN(C(C)C)CC4)cc3)nc2N)cc1 [Example 46]', 5.28);

* * *

pIC50: −log10 of the molar value.
Dear all, this message contains pIC50 results, target or system human cyclin E-CDK2 (Homo sapiens, UniProt P24941).
PROPERTY_MEASURED: pIC50

INSERT INTO results (structure_smiles, reported_value) VALUES
  ('CN1CCN(c2ccc(Nc3nc(N)c(C(=O)c4ccc(N5CCCCC5)cc4)s3)cc2)CC1', 5.03),
  ('COc1ccc(C(=O)c2sc(Nc3ccc(N4CCN(C)CC4)cc3)nc2N)cc1F', 5.74),
  ('CN1CCN(c2ccc(Nc3nc(N)c(C(=O)c4ccc(Cl)c(Cl)c4)s3)cc2)CC1', 5.20),
  ('CN1CCN(c2ccc(Nc3nc(N)c(C(=O)c4ccc(N5CCCC5)c([N+](=O)[O-])c4)s3)cc2)CC1', 5.62);

* * *

TGT: human cyclin D1-CDK4 (Homo sapiens, UniProt P11802)
Sequence (P11802 whole entry): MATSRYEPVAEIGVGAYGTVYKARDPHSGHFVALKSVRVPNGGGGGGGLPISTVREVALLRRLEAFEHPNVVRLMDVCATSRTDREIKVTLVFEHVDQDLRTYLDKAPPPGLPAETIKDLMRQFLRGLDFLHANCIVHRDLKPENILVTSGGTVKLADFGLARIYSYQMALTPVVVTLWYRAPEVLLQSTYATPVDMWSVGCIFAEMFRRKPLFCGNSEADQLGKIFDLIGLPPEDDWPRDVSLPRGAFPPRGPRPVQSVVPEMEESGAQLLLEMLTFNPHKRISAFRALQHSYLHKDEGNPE
Sequence (P24385 whole entry partner): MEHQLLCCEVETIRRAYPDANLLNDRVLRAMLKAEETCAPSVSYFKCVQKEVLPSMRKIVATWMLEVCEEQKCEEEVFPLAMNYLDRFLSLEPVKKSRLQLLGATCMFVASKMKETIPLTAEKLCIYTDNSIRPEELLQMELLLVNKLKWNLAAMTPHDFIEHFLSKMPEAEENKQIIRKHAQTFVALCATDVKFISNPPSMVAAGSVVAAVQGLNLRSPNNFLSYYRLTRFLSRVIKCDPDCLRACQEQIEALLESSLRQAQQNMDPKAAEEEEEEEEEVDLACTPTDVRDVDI
ASSAY_TEXT: FlashPlate kinase assay, cyclin D1-CDK4
ASSAY_SETUP: Rb protein substrate, 1 μM ATP
Measured IC50 accompanies every entry in the list below.
PROPERTY_MEASURED: IC50 (nM)

INSERT INTO assay_data (structure_smiles, property_measured, reported_value) VALUES
  ('CN1CCN(c2ccc(Nc3nc(N)c(C(=O)c4ccc(N5CCCC5)c(N)c4)s3)cc2)CC1', 'IC50', 26),
  ('COc1cc(OC)cc(C(=O)c2sc(Nc3ccc(N4CCN(C(C)C)CC4)cc3)nc2N)c1', 'IC50', 28),
  ('Nc1nc(Nc2ccc(N3CCNCC3)cc2)sc1C(=O)c1ccc(N2CCCC2)cc1', 'IC50', 50),
  ('COc1ccc(C(=O)c2sc(Nc3ccc(N4CCNCC4)cc3)nc2N)cc1F', 'IC50', 14),
  ('CC(C)N1CCN(c2ccc(Nc3nc(N)c(C(=O)c4ccc5c(c4)OCO5)s3)cc2)CC1', 'IC50', 10),
  ('COCCNc1ccc(C(=O)c2sc(Nc3ccc(N4CCN(C)CC4)cc3)nc2N)cc1[N+](=O)[O-]', 'IC50', 17),
  ('CN1CCN(c2ccc(Nc3nc(N)c(C(=O)c4ccc(N5CCCCC5)cc4)s3)cc2)CC1', 'IC50', 4),
  ('CN1CCN(c2ccc(Nc3nc(N)c(C(=O)c4ccc5oc6ccccc6c5c4)s3)cc2)CC1', 'IC50', 49),
  ('CC(C)C[C@H](CO)Nc1ccc(C(=O)c2sc(Nc3ccc(N4CCN(C)CC4)cc3)nc2N)cc1[N+](=O)[O-]', 'IC50', 25),
  ('CCN(CC)c1ccc(C(=O)c2sc(Nc3ccc(N4CCN(C(C)C)CC4)cc3)nc2N)cc1', 'IC50', 14),
  ('Nc1nc(Nc2ccc(N3CCN(CCO)CC3)cc2)sc1C(=O)c1cccc(F)c1', 'IC50', 20);
